meta.source: patent US20100260765A1

- system name: human KDR on cells (human, UniProt P35968 20-1356)
- Sequence (P35968 20-1356): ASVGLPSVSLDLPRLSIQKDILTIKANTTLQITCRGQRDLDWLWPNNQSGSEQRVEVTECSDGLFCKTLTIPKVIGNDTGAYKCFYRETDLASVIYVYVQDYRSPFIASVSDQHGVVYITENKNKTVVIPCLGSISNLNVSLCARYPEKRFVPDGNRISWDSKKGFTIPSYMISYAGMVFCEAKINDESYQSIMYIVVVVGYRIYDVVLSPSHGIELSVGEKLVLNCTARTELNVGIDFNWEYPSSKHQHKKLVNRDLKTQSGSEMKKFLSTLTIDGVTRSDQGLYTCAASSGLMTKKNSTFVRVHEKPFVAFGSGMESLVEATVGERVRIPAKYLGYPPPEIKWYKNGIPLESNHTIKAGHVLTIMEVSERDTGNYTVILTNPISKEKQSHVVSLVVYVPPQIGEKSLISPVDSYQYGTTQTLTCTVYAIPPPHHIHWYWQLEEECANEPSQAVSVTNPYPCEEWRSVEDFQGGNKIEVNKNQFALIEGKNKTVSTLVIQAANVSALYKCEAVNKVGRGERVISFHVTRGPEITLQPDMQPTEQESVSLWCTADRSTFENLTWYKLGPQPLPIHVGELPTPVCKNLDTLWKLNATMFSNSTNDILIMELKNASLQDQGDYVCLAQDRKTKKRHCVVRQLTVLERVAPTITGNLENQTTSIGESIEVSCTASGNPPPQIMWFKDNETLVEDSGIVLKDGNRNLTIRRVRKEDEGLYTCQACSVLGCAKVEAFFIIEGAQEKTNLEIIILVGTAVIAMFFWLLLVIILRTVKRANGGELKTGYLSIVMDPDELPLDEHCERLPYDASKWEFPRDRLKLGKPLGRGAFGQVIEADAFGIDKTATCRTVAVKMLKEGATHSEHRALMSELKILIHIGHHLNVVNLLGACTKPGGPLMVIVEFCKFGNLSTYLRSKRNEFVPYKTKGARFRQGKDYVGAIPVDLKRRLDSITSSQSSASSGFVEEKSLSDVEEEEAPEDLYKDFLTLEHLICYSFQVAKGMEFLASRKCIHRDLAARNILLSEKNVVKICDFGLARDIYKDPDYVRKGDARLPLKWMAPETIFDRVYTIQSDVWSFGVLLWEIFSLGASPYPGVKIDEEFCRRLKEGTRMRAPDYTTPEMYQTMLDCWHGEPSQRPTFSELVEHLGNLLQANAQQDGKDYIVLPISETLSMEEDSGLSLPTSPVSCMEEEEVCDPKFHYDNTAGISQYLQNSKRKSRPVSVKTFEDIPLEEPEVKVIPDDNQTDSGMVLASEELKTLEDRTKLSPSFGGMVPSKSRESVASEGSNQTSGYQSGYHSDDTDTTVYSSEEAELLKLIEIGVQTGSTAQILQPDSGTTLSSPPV
- method summary: cell-based or functional assay
Response field label takes criterion met when % Inhibition (Average) of VEGF-C-mediated KDR activity, antibody 100 nM is strictly below 80% and criterion not met in all other cases.

Worked examples follow.
>>> qualitative_label("31E11 (antibody, V domains shown) VH: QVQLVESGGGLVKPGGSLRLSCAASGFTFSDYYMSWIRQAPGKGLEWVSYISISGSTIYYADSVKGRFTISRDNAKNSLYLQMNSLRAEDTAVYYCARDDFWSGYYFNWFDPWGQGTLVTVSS VL: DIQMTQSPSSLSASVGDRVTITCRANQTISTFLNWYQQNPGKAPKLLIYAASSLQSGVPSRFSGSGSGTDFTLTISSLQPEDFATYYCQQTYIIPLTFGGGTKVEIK")
"criterion not met"
>>> qualitative_label("33B1 (antibody, V domains shown) VH: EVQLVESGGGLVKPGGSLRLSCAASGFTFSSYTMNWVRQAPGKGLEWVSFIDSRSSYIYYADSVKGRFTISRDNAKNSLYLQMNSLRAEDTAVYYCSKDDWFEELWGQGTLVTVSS VL: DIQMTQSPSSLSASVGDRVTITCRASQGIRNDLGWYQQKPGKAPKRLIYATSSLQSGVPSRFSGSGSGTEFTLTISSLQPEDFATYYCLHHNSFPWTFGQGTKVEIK")
"criterion met"

Now look at this one.
For 21H6 (antibody, V domains shown) VH: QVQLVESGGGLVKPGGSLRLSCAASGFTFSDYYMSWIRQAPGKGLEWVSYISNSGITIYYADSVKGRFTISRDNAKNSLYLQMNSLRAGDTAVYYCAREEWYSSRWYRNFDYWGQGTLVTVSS VL: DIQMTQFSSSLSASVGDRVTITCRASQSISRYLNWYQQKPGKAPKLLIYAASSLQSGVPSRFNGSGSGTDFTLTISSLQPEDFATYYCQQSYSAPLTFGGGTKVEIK , is the recorded % Inhibition (Average) of VEGF-C-mediated KDR activity, antibody 100 nM below the cut-off of 80%?
criterion not met
